Test: Quantitative High-Throughput drug screen in 47 multiple myeloma cell lines against the NCATS MIPE library collection: KMM1_JCRB cell viability assay (AID 1918960); further: nearly all actives have a fitted effect of over 30% in size
Conditions: KMM1 myeloma viability, CellTiter-Glo ATP luminescence, 48 h; series mostly up to 45.8 µM
Inconclusive results are not listed. Active and inactive are the calls of the source. The call rests on the fitted dose curve; in most records, active means well fitted cell-killing curve with a large enough effect; inconclusive means small, poorly fitted or top-dose-only effect, or effect the other way; inactive means no such curve, though single readings can be large or run the other way.
Write down the outcome that applies. Available outcomes: active, inactive

Give the logged outcome of this assay for the following compound: "CC(C)N(CCNC(=O)CN1CCCC1=O)C(C)C"
inactive

Give the logged outcome of this assay for the following compound: N=c1c2c(-c3ccccc3)c(-c3ccccc3)n(Cc3ccccc3)c2ncn1C1CCC(O)CC1 (configuration not stated)
active

Give the logged outcome of this assay for the following compound: "CCNC(=O)C[C@@H]1N=C(c2ccc(Cl)cc2)c2cc(OC)ccc2-n2c(C)nnc21"
active

Give the logged outcome of this assay for the following compound: "O=C(N[C@@H](COc1ccc2[nH]c(=O)[nH]c2c1)c1ccccc1)c1cccn(Cc2ccc(F)c(F)c2)c1=O"
active

Give the logged outcome of this assay for the following compound: CCC(=O)OC1CCC2C3CCC4=CC(=O)CC[C@@]4(C)C3CC[C@]12C (some centres not stated)
inactive

Give the logged outcome of this assay for the following compound: "CCCCCC[C@H]1C(=O)O[C@H](C)[C@H](NC(=O)c2cccc(NC=O)c2O)C(=O)O[C@@H](C)[C@@H]1OC(=O)CC(C)C"
active

Give the logged outcome of this assay for the following compound: COc1ccc(CC2NCCc3cc(OC)c(OC)cc32)cc1OC (configuration not stated)
inactive

Give the logged outcome of this assay for the following compound: "CCOC(=O)c1cncn1[C@H](C)c1ccccc1"
inactive

Give the logged outcome of this assay for the following compound: "CCN1CCN(C(=O)Cc2ccc(Nc3ncc(F)c(Nc4ccc(C(=O)Nc5ccccc5Cl)cc4)n3)cc2)CC1"
active

Give the logged outcome of this assay for the following compound: "Cc1[nH]nc2ccc(-c3cncc(OC[C@@H](N)Cc4c[nH]c5ccccc45)c3)cc12"
inactive

Give the logged outcome of this assay for the following compound: "O=C(NCC1CCOCC1)c1cnc(Nc2ccc(Cl)cc2Cl)nc1C(F)(F)F"
inactive

Give the logged outcome of this assay for the following compound: COc1ccc2c(c1)CN(C)CC2c1ccc(Cl)c(Cl)c1 (configuration not stated)
active

Give the logged outcome of this assay for the following compound: "CC(C)N[C@@H]1CCn2c(=O)[nH]c3cccc(c32)[C@@H]1O"
active

Give the logged outcome of this assay for the following compound: COCC1(CO)C(=O)C2CCN1CC2 (configuration not stated)
active

Give the logged outcome of this assay for the following compound: "CC(=Cc1csc(C)n1)[C@@H]1C[C@H]2O[C@]2(C)CCC[C@H](C)[C@@H](O)[C@@H](C)C(=O)C(C)(C)[C@@H](O)CC(=O)O1"
active

Give the logged outcome of this assay for the following compound: "CC(C)(C)c1cc(C=C(C#N)C#N)cc(Br)c1O"
active

Give the logged outcome of this assay for the following compound: "O=C(Nc1ccncc1)C(=O)c1cn(Cc2ccc(Cl)cc2)c2ccccc12"
active

Give the logged outcome of this assay for the following compound: "CCOC(=O)Nc1ccc(NCc2ccc(F)cc2)cc1N"
active

Give the logged outcome of this assay for the following compound: "c1ccc(CCCN2CCN(CCOC(c3ccccc3)c3ccccc3)CC2)cc1"
inactive

Give the logged outcome of this assay for the following compound: "COc1ccc2c(c[n+](C)c3c4cc5c(cc4ccc23)OCO5)c1OC"
active

Give the logged outcome of this assay for the following compound: "c1ccc2c(CN3CCNCC3)cccc2c1"
inactive

Give the logged outcome of this assay for the following compound: "O=c1cccc2n1CC1CNC[C@H]2C1"
active

The values you see were collected from PubChem BioAssay (NCATS).
